Biological target: AedaeCAPA-R (Aedes aegypti)
Sequence (A0A7D5D2Z2 1-712): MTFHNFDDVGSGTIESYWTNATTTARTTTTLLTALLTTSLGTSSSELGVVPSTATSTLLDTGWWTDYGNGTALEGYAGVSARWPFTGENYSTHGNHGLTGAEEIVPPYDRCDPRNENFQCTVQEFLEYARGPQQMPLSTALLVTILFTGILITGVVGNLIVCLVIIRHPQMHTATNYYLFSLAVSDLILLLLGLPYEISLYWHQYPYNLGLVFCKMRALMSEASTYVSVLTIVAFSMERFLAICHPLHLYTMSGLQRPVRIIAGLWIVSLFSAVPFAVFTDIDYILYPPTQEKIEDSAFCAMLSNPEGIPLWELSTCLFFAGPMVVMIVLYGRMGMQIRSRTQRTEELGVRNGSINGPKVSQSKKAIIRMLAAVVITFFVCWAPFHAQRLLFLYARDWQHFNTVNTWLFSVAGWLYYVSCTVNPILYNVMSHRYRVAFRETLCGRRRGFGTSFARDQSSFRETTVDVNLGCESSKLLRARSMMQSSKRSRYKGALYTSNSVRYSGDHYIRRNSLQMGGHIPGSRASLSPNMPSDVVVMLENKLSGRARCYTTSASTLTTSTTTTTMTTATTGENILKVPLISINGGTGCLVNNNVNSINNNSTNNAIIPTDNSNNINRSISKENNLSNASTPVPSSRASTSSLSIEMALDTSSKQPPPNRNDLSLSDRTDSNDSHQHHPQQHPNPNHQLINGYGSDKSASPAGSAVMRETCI
Assay: cell-based
Ends that are not written are not given here.
Measurement type: EC50 (nM)
Record the value in nM, omitting the unit from your answer.

Q. Look up EC50 for this substance: GPTVGLFAFPRV-NH2 [CAPA1]
A. 1.83

====

Target: Aedaekinin-R (Aedes aegypti, UniProt Q5EY37)
Sequence (Q5EY37 1-584): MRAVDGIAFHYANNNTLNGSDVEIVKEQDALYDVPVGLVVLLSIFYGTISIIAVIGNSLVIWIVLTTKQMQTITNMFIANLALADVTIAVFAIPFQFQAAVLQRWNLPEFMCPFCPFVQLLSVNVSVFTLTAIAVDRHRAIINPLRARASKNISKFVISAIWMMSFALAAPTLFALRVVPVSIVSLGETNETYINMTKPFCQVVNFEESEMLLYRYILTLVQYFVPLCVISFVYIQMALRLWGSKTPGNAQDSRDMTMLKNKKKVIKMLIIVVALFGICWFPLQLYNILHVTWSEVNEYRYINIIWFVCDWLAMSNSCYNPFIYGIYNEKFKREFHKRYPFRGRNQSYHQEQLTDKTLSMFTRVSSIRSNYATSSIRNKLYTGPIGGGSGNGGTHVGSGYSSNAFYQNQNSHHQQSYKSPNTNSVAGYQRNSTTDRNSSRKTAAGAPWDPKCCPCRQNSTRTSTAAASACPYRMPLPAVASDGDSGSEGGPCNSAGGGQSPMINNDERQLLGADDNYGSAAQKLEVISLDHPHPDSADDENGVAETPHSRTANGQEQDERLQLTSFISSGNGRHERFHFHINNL
Assay: Heterologous receptor functional activation bioluminescence assay, Aedaekinin-R
Type: cell-based
Details: CHO-K1-aeq cells transiently expressing Aedaekinin-R (pcDNA3.1+); aequorin luminescence over 20 s; peptides tested up to 10 µmol l^−1; read-out: EC50 on kinin-R
Ends that are not written are not given here.
Measurement type: EC50

Worked examples follow.
GPTVGLFAFPRV-NH2 [CAPA1] : > 10 µM
TVDFGLSRGYSGAQEAKHRMAMAVANFAGGP-NH2 [DH31] : > 10 µM

Q. Recorded EC50 of PVFFVASRY-NH2 [RYa-1] , please.
A. > 10 µM

Q. Given the substance AGNSGANSGMWFGPRL-NH2 [PK1] , what is its reported EC50?
A. > 10 µM

Q. What does the data say about its EC50? Entry: MQRPQGPSLSVANPIEVLRSRLLLEIARRRMKEQDASRVSKNRQYLQQI-NH2 [DH44]
A. > 10 µM

Q. For the substance shown here, NPFHSWG-NH2 [CDP] , give the reported EC50.
A. 0.0115 µM

====

Biological target: AedaeDH31-R
Assay: Heterologous receptor functional activation bioluminescence assay, AedaeDH31-R
Type: cell-based, Aedes aegypti
Settings: CHO-K1-aeq cells transiently expressing AedaeDH31-R (pBudCE4.1 Gα15); aequorin luminescence over 20 s; peptides tested up to 10 µmol l^−1; read-out: EC50 on DH31-R
pEC50: −log10 of the molar value. Ends that are not written are not given here.
Measurement type: pEC50

PVFFVASRY-NH2 [RYa-1] : < 5.00

Q. Report pEC50 for MQRPQGPSLSVANPIEVLRSRLLLEIARRRMKEQDASRVSKNRQYLQQI-NH2 [DH44] please.
A. < 5.00

Q. Need pEC50, item AGNSGANSGMWFGPRL-NH2 [PK1]
A. < 5.00
